Molecular target: PXR (Nuclear receptor subfamily 1 group I member 2) (Homo sapiens, UniProt O75469)
Sequence (O75469 whole entry): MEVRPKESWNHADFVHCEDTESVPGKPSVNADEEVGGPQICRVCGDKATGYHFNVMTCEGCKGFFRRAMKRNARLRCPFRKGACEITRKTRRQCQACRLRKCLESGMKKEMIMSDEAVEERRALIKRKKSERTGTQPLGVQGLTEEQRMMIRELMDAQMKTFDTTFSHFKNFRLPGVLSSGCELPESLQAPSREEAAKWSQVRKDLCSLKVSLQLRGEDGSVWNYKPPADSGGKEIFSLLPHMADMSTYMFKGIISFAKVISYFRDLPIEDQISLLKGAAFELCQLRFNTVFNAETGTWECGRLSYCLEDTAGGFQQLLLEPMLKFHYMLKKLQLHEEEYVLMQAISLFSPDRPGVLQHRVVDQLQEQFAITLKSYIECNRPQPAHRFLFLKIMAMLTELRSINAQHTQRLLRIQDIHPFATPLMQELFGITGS
Assay: In Vitro Assay
attribute.measured: pIC50
In textbook form, pIC50 equals minus log to base ten of the concentration in mol/L.

COc1ccc(Cl)cc1-n1nnc(C(=O)Nc2cc(C(C)(C)C)ccc2OCC(=O)O)c1C = 6.44

Ask | Using the record for CCCC(CC)Oc1ccc(C(C)(C)C)cc1NC(=O)c1nnn(-c2cc(OC)ccc2OC)c1C (configuration not stated) , report its pIC50.
Reply | 8.42
